- Test system: Mus musculus
- assay: Nephrotoxicity in Swiss albino mouse assessed as serum creatinine level at 3 mg/kg, po after 30 days (reference value: 9.40+/-0.48 mg/dL)
- Format: toxicity, organism-based
- Set-up: dose 3 mg/kg, route oral
- experimental.conditions: in vivo, 720 h
Provide the recorded Activity for the entries that follow.
Numbers only, in mg/dL.

substance.smiles	value
N#C[Se]CCCCCN1C(=O)c2cccc3c(Cl)ccc(c23)C1=O	7.45
N#C[Se]CCCCCN1C(=O)c2cccc3cccc(c23)C1=O	6.4
N#C[Se]CCCCCN1C(=O)c2cccc3cc([N+](=O)[O-])cc(c23)C1=O	7.86

INPUT: Param item = N#C[Se]CCCCCN1C(=O)c2cccc3c(N)ccc(c23)C1=O ; retrieve measured Activity.
OUTPUT: 7.13
